Assay: Cmax in Sprague-Dawley rat at 8 mg/kg, iv measured upto 48 hrs by LC-MS/MS analysis
Assay type: ADME, organism-based
Set-up: time < 48 hrs, dose 8 mg/kg, route iv
Settings: in vivo
recordedMetric: Cmax
Provide a numeric answer, followed by its unit.

N#Cc1cncc(COc2cc(OCc3cccc(-c4ccccc4F)c3Cl)ccc2CNCCO)c1 :: 6230 ng/mL

Req: What value of measured Cmax is listed for N#Cc1cccc(COc2cc(OCc3cccc(-c4ccccc4F)c3Cl)ccc2CNCC(=O)O)c1 ?
Resp: 2530 ng/mL

====

Experiment: Cmax in Sprague-Dawley rat at 10 mg/kg, ip measured upto 48 hrs by LC-MS/MS analysis
Assay type: ADME, organism-based
Design: time < 48 hrs, dose 10 mg/kg, route ip
Conditions: in vivo
recordedMetric: Cmax (ng/mL)
Could you give me the number in ng/mL? Just the number is fine.

N#Cc1cccc(COc2cc(OCc3cccc(-c4ccccc4F)c3Cl)ccc2CNCC(=O)O)c1 :: 786

# context switch: different molecule, same Cmax
Req: Please give the measured Cmax for this molecule: N#Cc1cncc(COc2cc(OCc3cccc(-c4ccccc4F)c3Cl)ccc2CNCCO)c1
Resp: 4160
